assay: inhibitors of TNFa-induced NFkB p65 translocation, primary screen, imaging, HUVEC, MLSMR starter and 10KST1 sets (AID 438);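 note: compound added about 3h40 before a 20 min TNFalpha stimulation; signal is the nuclear over cytoplasmic p65 intensity ratio per well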
run-conditions: HUVEC TNFa-induced p65 nuclear translocation; at 2 µM, active compounds read high, 0% TNFa-plus-vehicle, 100% no-TNFa wells
observable: inhibition (%)
Numbers only; they are read as %.

Examples with answers:
compound	inhibition / %
COc1ccccc1CC(=O)NCc1ccc2c(c1)OCO2	-0.6
CCC(=O)N1CCc2cc(S(=O)(=O)CCC(=O)Nc3ccc(F)c(F)c3)ccc21	5.2
O=S1(=O)CC(N2CCCCC2)C(N2CCCCC2)C1 (stereo unspecified)	3.6
COC(=O)C1=C(C)NC(C)=C(C(=O)OC)C1C1CC=CCC1 (stereo unspecified)	1.7

Specify inhibition for O=C(CSc1ncc(-c2ccc(F)cc2)[nH]1)N1CCCCC1 and stop.
0

Specify inhibition for COC(=O)c1cccc(Oc2nc3c(c(=O)n(C)c(=O)n3C)n2C(C)C)c1 and stop.
-5.8

Specify inhibition for CCOC(=O)c1c(C)[nH]c(C)c1C(=O)COC(=O)CNC(=O)c1ccc(OCC)cc1 and stop.
-2.2

Specify inhibition for CCCC1c2ccc(C)n2CCN1C(=O)Nc1ccccc1Cl (stereo unspecified) and stop.
2.3
